- ASSAY_INFO: Tissue distribution after single oral administration in mice
- Type: in vivo, ICR mice
- SETUP_CONDITIONS: male, ICR, mouse, single oral 1 mg/kg, stomach, read-out: AUC Ratio (AUC24 h, tissue / AUC24 h, plasma)
- Procedure: Thirty-six ICR mice were fasted with water ad libitum for at least 12 h before oral administration of enavogliflozin and randomly divided into six groups (n = 6 per each sampling time point) and administered with an enavogliflozin solution at a dose of 1 mg/kg via oral gavage. […] The data were expressed as the means ± standard deviation for the groups. […] The AUC ratios were calculated by dividing the AUClast of enavogliflozin in the tissue samples by the plasma AUClast values of enavogliflozin [15].
MEASUREMENT_LABEL: Kp
Form: value (number only, do not type unit).

QUERY: Endpoint output: Kp of OC[C@H]1O[C@@H](c2cc(Cc3ccc(C4CC4)cc3)c(Cl)c3c2CCO3)[C@H](O)[C@@H](O)[C@@H]1O . Value?
RESULT: 12.1

====

- ASSAY_INFO: Pharmacokinetics after oral administration in rats
- Assay type: in vivo, Sprague Dawley (SD) rats
- SETUP_CONDITIONS: Sprague-Dawley, rat, PO 1 mg/kg, plasma
MEASUREMENT_LABEL: half-life (h)
All answers are understood in h, so give the number only.

QUERY: Endpoint output: half-life of OC[C@H]1O[C@@H](c2cc(Cc3ccc(C4CC4)cc3)c(Cl)c3c2CCO3)[C@H](O)[C@@H](O)[C@@H]1O [enavogliflozin] . Value?
RESULT: 6.9

====

- ASSAY_INFO: Tissue distribution after single oral administration in mice
- Format: in vivo, ICR mice
- SETUP_CONDITIONS: male, ICR, mouse, kidney (versus plasma), single oral 1 mg/kg, kidney, read-out: AUC Ratio (AUC24 h, tissue / AUC24 h, plasma)
MEASUREMENT_LABEL: Kp
Form: value (number only, do not type unit).

QUERY: Endpoint output: Kp of OC[C@H]1O[C@@H](c2cc(Cc3ccc(C4CC4)cc3)c(Cl)c3c2CCO3)[C@H](O)[C@@H](O)[C@@H]1O . Value?
RESULT: 41.9

====

- ASSAY_INFO: Pharmacokinetics after intravenous injection in mice
- Assay type: in vivo, ICR mice
- SETUP_CONDITIONS: ICR, mouse, IV 1 mg/kg, plasma
MEASUREMENT_LABEL: AUC(0-t) (ng·h/mL)
All answers are understood in ng·h/mL, so give the number only.

QUERY: Endpoint output: AUC(0-t) of OC[C@H]1O[C@@H](c2cc(Cc3ccc(C4CC4)cc3)c(Cl)c3c2CCO3)[C@H](O)[C@@H](O)[C@@H]1O . Value?
RESULT: 1510

====

- ASSAY_INFO: Tissue distribution after single oral administration in mice
- Format: in vivo, ICR mice
- SETUP_CONDITIONS: male, ICR, mouse, single oral 1 mg/kg, large intestine, read-out: AUC Ratio (AUC24 h, tissue / AUC24 h, plasma)
MEASUREMENT_LABEL: Kp
Form: value (number only, do not type unit).

QUERY: Endpoint output: Kp of OC[C@H]1O[C@@H](c2cc(Cc3ccc(C4CC4)cc3)c(Cl)c3c2CCO3)[C@H](O)[C@@H](O)[C@@H]1O . Value?
RESULT: 8.5

====

- ASSAY_INFO: Pharmacokinetics after oral administration in rats
- Type: in vivo, Sprague Dawley (SD) rats
- SETUP_CONDITIONS: Sprague-Dawley, rat, PO 1 mg/kg, plasma
MEASUREMENT_LABEL: AUC(0-inf)
Please answer using the number first and the unit second.

QUERY: Endpoint output: AUC(0-inf) of OC[C@H]1O[C@@H](c2cc(Cc3ccc(C4CC4)cc3)c(Cl)c3c2CCO3)[C@H](O)[C@@H](O)[C@@H]1O . Value?
RESULT: 1650 ng·h/mL

====

- ASSAY_INFO: Pharmacokinetics after intravenous injection in rats
- Format: in vivo, Sprague Dawley (SD) rats
- SETUP_CONDITIONS: Sprague Dawley, rat, plasma, IV 1 mg/kg, read-out: Vd,ss
- Protocol: Twelve rats were randomly divided into three groups (n = 4 per each group) and injected with an enavogliflozin solution at doses of 0.3, 1, and 3 mg/kg. […] Concentrations of enavogliflozin in plasma and tissue homogenate samples were analyzed using an Agilent 6430 triple quadrupole liquid chromatography-mass spectrometry (LC–MS/MS) system (Agilent, Wilmington, DE, USA) following a previously published method. The data were expressed as the means ± standard deviation for the groups. […]
MEASUREMENT_LABEL: Vd (L/kg)
All answers are understood in L/kg, so give the number only.

QUERY: Endpoint output: Vd of OC[C@H]1O[C@@H](c2cc(Cc3ccc(C4CC4)cc3)c(Cl)c3c2CCO3)[C@H](O)[C@@H](O)[C@@H]1O . Value?
RESULT: 1.1

====

- ASSAY_INFO: Tissue distribution after single oral administration in mice
- Format: in vivo, ICR mice
- SETUP_CONDITIONS: male, ICR, mouse, single oral 1 mg/kg, kidney, read-out: T1/2 (elimination half-life) (converted)
MEASUREMENT_LABEL: half-life
Please answer using the number first and the unit second.

QUERY: Endpoint output: half-life of OC[C@H]1O[C@@H](c2cc(Cc3ccc(C4CC4)cc3)c(Cl)c3c2CCO3)[C@H](O)[C@@H](O)[C@@H]1O . Value?
RESULT: 29 h

====

- ASSAY_INFO: Pharmacokinetics after intravenous injection in mice
- Assay type: in vivo, ICR mice
- SETUP_CONDITIONS: ICR, mouse, plasma, IV 0.3–3 mg/kg, all doses together, read-out: Systemic clearance
MEASUREMENT_LABEL: clearance (mL/min/kg)
All answers are understood in mL/min/kg, so give the number only.

QUERY: Endpoint output: clearance of OC[C@H]1O[C@@H](c2cc(Cc3ccc(C4CC4)cc3)c(Cl)c3c2CCO3)[C@H](O)[C@@H](O)[C@@H]1O . Value?
RESULT: 10.1

====

- ASSAY_INFO: Pharmacokinetics after oral administration in mice
- Format: in vivo, ICR mice
- SETUP_CONDITIONS: ICR, mouse, plasma, po, 3 mg/kg, range over doses 0.3, 1 and 3 mg/kg, read-out: Oral bioavailability
MEASUREMENT_LABEL: bioavailability

QUERY: Endpoint output: bioavailability of OC[C@H]1O[C@@H](c2cc(Cc3ccc(C4CC4)cc3)c(Cl)c3c2CCO3)[C@H](O)[C@@H](O)[C@@H]1O . Value?
RESULT: 84.5 to 97.2%

====

- ASSAY_INFO: Recovery from urine and feces over 72 h in rats
- Assay type: in vivo, Sprague Dawley (SD) rats
- SETUP_CONDITIONS: Sprague-Dawley, rat, urine and feces, 1 mg/kg IV, 72 h, read-out: total recovery (feces + urine)
- Protocol: Three rats received enavogliflozin (1 mg/kg) intravenously and were returned to metabolic cages with food and water ad libitum and urine and feces samples were collected every 24 h for 72 h. […] Concentrations of enavogliflozin in plasma and tissue homogenate samples were analyzed using an Agilent 6430 triple quadrupole liquid chromatography-mass spectrometry (LC–MS/MS) system (Agilent, Wilmington, DE, USA) following a previously published method. […]
MEASUREMENT_LABEL: dose excreted

QUERY: Endpoint output: dose excreted of OC[C@H]1O[C@@H](c2cc(Cc3ccc(C4CC4)cc3)c(Cl)c3c2CCO3)[C@H](O)[C@@H](O)[C@@H]1O [enavogliflozin] . Value?
RESULT: ~16.6%

====

- ASSAY_INFO: Pharmacokinetics after intravenous injection in mice
- Format: in vivo, ICR mice
- SETUP_CONDITIONS: ICR, mouse, IV 1 mg/kg, plasma
MEASUREMENT_LABEL: AUC(0-inf) (µg·h/mL)
All answers are understood in µg·h/mL, so give the number only.

QUERY: Endpoint output: AUC(0-inf) of OC[C@H]1O[C@@H](c2cc(Cc3ccc(C4CC4)cc3)c(Cl)c3c2CCO3)[C@H](O)[C@@H](O)[C@@H]1O . Value?
RESULT: 1.63

====

- ASSAY_INFO: Pharmacokinetics after oral administration in mice
- Assay type: in vivo, ICR mice
- SETUP_CONDITIONS: ICR, mouse, PO 0.3 mg/kg, plasma
MEASUREMENT_LABEL: AUC(0-inf) (ng·h/mL)
All answers are understood in ng·h/mL, so give the number only.

QUERY: Endpoint output: AUC(0-inf) of OC[C@H]1O[C@@H](c2cc(Cc3ccc(C4CC4)cc3)c(Cl)c3c2CCO3)[C@H](O)[C@@H](O)[C@@H]1O . Value?
RESULT: 498

====

- ASSAY_INFO: Tissue distribution after single oral administration in mice
- Format: in vivo, ICR mice
- SETUP_CONDITIONS: male, ICR, mouse, single oral 1 mg/kg, large intestine, read-out: T1/2 (elimination half-life) (converted)
MEASUREMENT_LABEL: half-life (h)
All answers are understood in h, so give the number only.

QUERY: Endpoint output: half-life of OC[C@H]1O[C@@H](c2cc(Cc3ccc(C4CC4)cc3)c(Cl)c3c2CCO3)[C@H](O)[C@@H](O)[C@@H]1O . Value?
RESULT: 3.4
